Could you please report measured pKi for the items listed next?
# target_desc: VMAT2 (Rattus norvegicus, UniProt Q01827)
# Sequence (Q01827 whole entry): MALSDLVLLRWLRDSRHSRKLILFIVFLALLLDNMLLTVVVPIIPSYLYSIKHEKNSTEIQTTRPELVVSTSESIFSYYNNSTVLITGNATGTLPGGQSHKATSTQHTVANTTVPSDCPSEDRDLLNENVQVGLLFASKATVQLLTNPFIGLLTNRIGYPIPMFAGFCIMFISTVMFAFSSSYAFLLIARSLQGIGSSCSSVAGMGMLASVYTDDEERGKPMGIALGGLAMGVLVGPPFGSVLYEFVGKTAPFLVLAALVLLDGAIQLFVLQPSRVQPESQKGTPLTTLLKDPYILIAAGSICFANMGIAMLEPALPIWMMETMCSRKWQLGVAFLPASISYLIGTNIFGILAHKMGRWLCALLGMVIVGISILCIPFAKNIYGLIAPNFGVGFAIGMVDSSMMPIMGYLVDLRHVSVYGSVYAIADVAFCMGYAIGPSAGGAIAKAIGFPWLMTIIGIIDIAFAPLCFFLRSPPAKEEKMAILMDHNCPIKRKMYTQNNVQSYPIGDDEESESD
# Assay type: biochemical
# applied_conditions: read-out: VMAT2 [3H]DA uptake Ki; rat striatal vesicles, 0.1 μM [3H]DA, mean±SEM
Interpret pKi as the negative base-10 log of the concentration measured in mol/L.

Would you kindly share the measured pKi for c1ccc(C[C@H]2CC[C@@H](Cc3ccccc3)N2)cc1 [AV-2-192, cis-2,5-di(2-benzyl)-pyrrolidine] ?
8.03

What about `Cl.c1ccc(CC[C@@H]2CC[C@H](CCc3ccccc3)N2)cc1` ?
7.55

And `CN1[C@@H](Cc2ccccc2)CC[C@H]1Cc1ccccc1` ?
7.72

* * *

# target_desc: DAT (Rattus norvegicus, UniProt P23977)
# Sequence (P23977 whole entry): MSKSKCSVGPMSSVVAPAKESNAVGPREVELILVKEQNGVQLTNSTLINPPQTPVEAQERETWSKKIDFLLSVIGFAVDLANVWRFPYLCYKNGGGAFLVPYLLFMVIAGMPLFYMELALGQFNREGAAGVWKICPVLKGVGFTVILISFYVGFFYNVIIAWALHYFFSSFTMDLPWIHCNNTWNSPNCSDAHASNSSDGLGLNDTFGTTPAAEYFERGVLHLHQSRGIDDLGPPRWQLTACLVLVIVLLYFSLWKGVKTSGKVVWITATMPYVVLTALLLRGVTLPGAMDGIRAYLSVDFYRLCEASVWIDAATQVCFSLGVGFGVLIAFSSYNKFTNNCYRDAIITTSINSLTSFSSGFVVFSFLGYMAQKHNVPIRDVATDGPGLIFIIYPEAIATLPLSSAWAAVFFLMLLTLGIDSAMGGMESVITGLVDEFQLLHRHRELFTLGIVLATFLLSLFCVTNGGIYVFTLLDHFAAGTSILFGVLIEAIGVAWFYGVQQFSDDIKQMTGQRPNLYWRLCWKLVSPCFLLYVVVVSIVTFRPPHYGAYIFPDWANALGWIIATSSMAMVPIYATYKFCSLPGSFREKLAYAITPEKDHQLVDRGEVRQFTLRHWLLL
# measurement_protocol: Inhibition of [3H]DA uptake at DAT in synaptosomal preparations
# applied_conditions: read-out: DAT Ki value ([3H]DA uptake); synaptosomes
observable: Ki (µM)
Express it in µM; write the number only.

Entry under review: CN1[C@@H](Cc2ccccc2)CC[C@H]1Cc1ccccc1 [AV-2-197] . Reported Ki?
5.4

Okay, and c1ccc(C[C@H]2CC[C@@H](Cc3ccccc3)N2)cc1 [AV-2-192, cis-2,5-di(2-benzyl)-pyrrolidine] ?
2.63

* * *

# target_desc: VMAT2 (Rattus norvegicus)
# Assay type: biochemical
# applied_conditions: read-out: Ki at the DA uptake site on VMAT2
observable: Ki

For the compound shown here, c1ccc(C[C@H]2CC[C@@H](Cc3ccccc3)N2)cc1 [AV-2-192, cis-2,5-di(2-benzyl)-pyrrolidine] , give the reported Ki.
< 10 nM

* * *

Kindly supply the reported IC50 values for the records listed here.
# Tested on: METH-evoked DA release from striatal slices
# measurement_protocol: Inhibition of METH-evoked DA release from superfused striatal slices
# Format: cell-based, rat
# applied_conditions: read-out: IC50 for inhibition of METH-evoked DA release; METH 5 μM, total DA overflow, striatal slices
Give the value, in units of µM, as a plain number.

What is its IC50 for METH-evoked DA release from striatal slices? Entry: c1ccc(C[C@H]2CC[C@@H](Cc3ccccc3)N2)cc1 [AV-2-192, cis-2,5-di(2-benzyl)-pyrrolidine]
5.2

Same question for `CN1[C@@H](Cc2ccccc2)CC[C@H]1Cc1ccccc1` please.
4.2
